# Test system: RARb:RXRa (NR concentration 270 nM, RXRa partner concentration 90 nM)
# Test description: PBM binding z-score (relative to random genomic background probes); higher = stronger binding; sequences stand for … in GC…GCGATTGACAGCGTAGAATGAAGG
PBM binding z-score vs 3: at or above is rule met, below is rule not met.

# count of solved cases: 3
[
  {
    "Seq string": "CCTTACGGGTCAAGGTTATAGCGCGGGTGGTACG",
    "Test target": "RARb:RXRa (NR concentration 270 nM, RXRa partner concentration 90 nM)",
    "Label value": "rule met"
  },
  {
    "Seq string": "ATCTCTAGGTAACCAAGGTCAGTGAATGCCGAAC",
    "Test target": "RARb:RXRa (NR concentration 270 nM, RXRa partner concentration 90 nM)",
    "Label value": "rule not met"
  },
  {
    "Seq string": "CGAACTAGGTGATCCAGGACAGTGAATACATTGA",
    "Test target": "RARb:RXRa (NR concentration 270 nM, RXRa partner concentration 90 nM)",
    "Label value": "rule not met"
  }
]

Can GATACAGGGTCAGCTAGAGGCCAGAGTGTGGAAA be said to have PBM binding z-score at or above 3? rule met

Textbook exercise: given the entry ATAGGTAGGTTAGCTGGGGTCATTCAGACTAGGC , state whether its PBM binding z-score is greater than or equal to 3. rule met

Item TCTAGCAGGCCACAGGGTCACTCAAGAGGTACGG with PBM binding z-score of 3 or above? rule not met
